- Tested on: BDF1 mice, B16 melanoma ip, median survival T/C
- assay: NCI In Vivo Anticancer Drug Screen. Data for tumor model B16 Melanoma (intraperitoneal) in B6D2F1 (BDF1) mice
- reported_conditions: endpoint: median survival time; dose: 25.0 mg/kg/injection; schedule: Q01DX009 (ip); vehicle: saline; higher = longer survival
Inconclusive results and toxic doses are left out.
Assignment: determine reported T/C for the given compounds.

Param readout= T/C; system= BDF1 mice, B16 melanoma ip, median survival T/C; entry= "CC(C)CNc1ccc(S(=O)(=O)c2ccc(NCC(C)C)c([N+](=O)[O-])c2)cc1[N+](=O)[O-]" ; returns value.
88 % of control

Field: T/C (BDF1 mice, B16 melanoma ip, median survival T/C). Entry: CNCC(O)c1ccc(O)cc1 (stereo unspecified)
110 % of control

Enter reported T/C observed with BDF1 mice, B16 melanoma ip, median survival T/C for COC1CC(OC2CCC3(C)C(CCC45OC46CCC(C4=CC(=O)OC4)C6(C)CCC35)C2)OC(C)C1O (stereo unspecified)
89 % of control

Write down the reported T/C of Nc1nc2c(c(=O)[nH]1)NC(CCNc1ccc(C(=O)NC(CCC(=O)O)C(=O)O)cc1)CN2 (stereo unspecified) , test system: BDF1 mice, B16 melanoma ip, median survival T/C.
94 % of control

Which measured T/C belongs to "CCNCCCCCCNCC" , tested on BDF1 mice, B16 melanoma ip, median survival T/C?
90 % of control

What reported T/C corresponds to COC(=O)C1CCC[N+](C)(C)C1 (stereo unspecified) on BDF1 mice, B16 melanoma ip, median survival T/C?
100 % of control

Hello, I am looking for reported T/C with BDF1 mice, B16 melanoma ip, median survival T/C for COC(=O)C(c1ccccc1)C1CCCCN1 (stereo unspecified) . Could you help?
88 % of control

Missing value: T/C, BDF1 mice, B16 melanoma ip, median survival T/C, entry OC(CCl)CN1CC[N+]2(CC1)CC[N+]1(CCN(CC(O)CCl)CC1)CC2 (stereo unspecified) . Fill in?
111 % of control

I'm curious: which T/C was measured for CCN(CC)C(C)CN1c2ccccc2Sc2ccccc21 (stereo unspecified) tested on BDF1 mice, B16 melanoma ip, median survival T/C?
105 % of control

For the record "CCN(CC)CCNC1CCCCC1" , what value of T/C is listed for BDF1 mice, B16 melanoma ip, median survival T/C?
102 % of control

What is its T/C for BDF1 mice, B16 melanoma ip, median survival T/C? Entry: "NC(=O)C1(N2CCCCC2)CCN(CCCC(=O)c2ccc(F)cc2)CC1"
113 % of control

Item OC12CCC[N+]1(Cc1ccccc1)CCC2 (stereo unspecified) with BDF1 mice, B16 melanoma ip, median survival T/C - T/C?
109 % of control

// fetch BDF1 mice, B16 melanoma ip, median survival T/C T/C for "CNCC(C)(C)c1ccccc1"
102 % of control

Recall the recorded T/C for "C=C1C/C(=C/C)C(=O)O[C@@H]2CCN3CC=C(COC(=O)[C@]1(C)O)[C@H]23" with BDF1 mice, B16 melanoma ip, median survival T/C and state it.
116 % of control

So what T/C did "O=S(=O)(O)O.[Ga]" get with BDF1 mice, B16 melanoma ip, median survival T/C?
94 % of control

Item CC(CN1c2ccccc2Sc2cccnc21)N(C)C (stereo unspecified) with BDF1 mice, B16 melanoma ip, median survival T/C - T/C?
109 % of control

Which T/C is reported with BDF1 mice, B16 melanoma ip, median survival T/C for this entry: "CC(=O)OCCN1CC1" ?
95 % of control

Value wanted: T/C (BDF1 mice, B16 melanoma ip, median survival T/C) of entry CCC(c1ccc(OC)cc1)C(CC)c1ccc(O)c(CN2CCN(C)CC2)c1 (stereo unspecified)
93 % of control

Give BDF1 mice, B16 melanoma ip, median survival T/C T/C for "CNCCCN1c2ccccc2CCc2ccccc21"
87 % of control

Which T/C is reported with BDF1 mice, B16 melanoma ip, median survival T/C for this entry: "O=C1C(Cl)=C(N=Nc2c(Cl)c(O)c3ccccc3c2O)C(=O)c2ccccc21" ?
86 % of control

Notebook entry, BDF1 mice, B16 melanoma ip, median survival T/C assay: T/C of "O=C(C[n+]1ccc2ccccc2c1)c1ccccc1" = ?
86 % of control

Which measured T/C belongs to CC[N+]1(C2CCC3CCC2C3O)CCOCC1 (stereo unspecified) , tested on BDF1 mice, B16 melanoma ip, median survival T/C?
105 % of control

Could you share what T/C was measured for "CN1CCN=C(c2ccccc2)c2cc(Cl)ccc21" , tested on BDF1 mice, B16 melanoma ip, median survival T/C?
115 % of control

Short answer please: T/C, BDF1 mice, B16 melanoma ip, median survival T/C, entry Nc1ccn(C2OC(CO)C(O)C2O)c(=O)n1 (stereo unspecified)
98 % of control

Form entry - test system: BDF1 mice, B16 melanoma ip, median survival T/C; read-out: T/C; compound: C[N+](C)(C)CCCC1C2CCC(C2)C1C[N+](C)(C)C (stereo unspecified)
110 % of control

Find the measured T/C: item "NNC(=O)c1ccccc1" , target or system BDF1 mice, B16 melanoma ip, median survival T/C.
97 % of control

Entry "CNC(=O)Oc1c(C)occc1=O" , system BDF1 mice, B16 melanoma ip, median survival T/C: what T/C was measured?
100 % of control

Give T/C (BDF1 mice, B16 melanoma ip, median survival T/C) of the following compound: "CCCCCCCCCCCCCC(=O)N(C)C"
97 % of control

What reported T/C corresponds to "Nc1ccc2ncccc2c1" on BDF1 mice, B16 melanoma ip, median survival T/C?
105 % of control

T/C of CN1CCN(C(c2ccccc2)c2ccc(Cl)cc2)CC1 (stereo unspecified) on BDF1 mice, B16 melanoma ip, median survival T/C?
102 % of control

BDF1 mice, B16 melanoma ip, median survival T/C / T/C / "CCOC(=O)N(Cc1ccccc1)C1CC1" : value?
105 % of control
